Method Description: Apparent permeability from apical to basolateral side of human Caco-2 cell membrane at pH 7.4 after 21 days
Assay type: ADME, cell-based
Experimental Parameters: Caco-2, pH 7.4
Quantity Kind: Papp A→B (×10⁻⁶ cm/s)

>>> print(df.to_string())
                        chemical_structure  recorded_value
0  COc1cccc2c(CCCN3CCN(C4CCCCC4)CC3)cccc12             6.3

* * *

Target Desc: Sigma non-opioid intracellular receptor 1 (Mus musculus)
Sequence (O55242 whole entry): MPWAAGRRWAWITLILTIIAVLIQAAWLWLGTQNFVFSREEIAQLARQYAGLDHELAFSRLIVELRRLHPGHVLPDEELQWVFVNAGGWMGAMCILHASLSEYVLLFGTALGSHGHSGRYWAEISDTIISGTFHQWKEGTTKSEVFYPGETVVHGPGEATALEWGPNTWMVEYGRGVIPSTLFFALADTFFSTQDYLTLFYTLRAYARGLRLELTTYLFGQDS
Method Description: Displacement of (+)-[3H]pentazocine from mouse sigma 1 receptor in TRAMP cell membrane
pKi: −log10 of the molar value.
Quantity Kind: pKi

                        chemical_structure                               target_desc  quantity_kind  recorded_value
0  COc1cccc2c(CCCN3CCN(C4CCCCC4)CC3)cccc12  Sigma non-opioid intracellular receptor 1 (Mus musculus)            pKi            8.19
